Where these numbers come from: paper PMC9363231

# target or test system: HLA-DRB1*04:05 (Homo sapiens, UniProt P01903+P01911, A100R/A169T/D86S/F76Y/I96L/K127E/L162R/M171V/N62H/P40V/Q125Y/R42H/S133A/S149N/S66Y/V115G/V209L/W38E)
# protocol text: biochemical
pIC50: −log10 of the molar value.
measured endpoint: pIC50

- CC[C@H](C)[C@H](NC(=O)[C@H](CCCCN)NC(=O)[C@@H](N)Cc1ccccc1)C(=O)N[C@@H](Cc1ccc(O)cc1)C(=O)N[C@@H](CO)C(=O)N[C@@H](CCCCN)C(=O)N[C@@H](Cc1c[nH]cn1)C(=O)N[C@H](C(=O)N1CCC[C@H]1C(=O)N[C@H](C(=O)N[C@@H](CC(N)=O)C(=O)N[C@@H](CC(C)C)C(=O)N[C@H](C(=O)N[C@@H](CCCNC(=N)N)C(=O)N[C@@H](CC(=O)O)C(=O)O)C(C)C)[C@@H](C)CC)[C@@H](C)O [peptide 41]: 4.79

====

# target or test system: HLA-DRB1*13:02 (Homo sapiens, UniProt P01903+P01911, A100E/A169T/K41T/L162R/M171V/P40S/Q125H/Q178H/Q39Y/Q99D/R42S/S66N/T262R/V115G/W38E/Y61H)
# Sequence (P01903 26-254 limits assumed, other chains not shown): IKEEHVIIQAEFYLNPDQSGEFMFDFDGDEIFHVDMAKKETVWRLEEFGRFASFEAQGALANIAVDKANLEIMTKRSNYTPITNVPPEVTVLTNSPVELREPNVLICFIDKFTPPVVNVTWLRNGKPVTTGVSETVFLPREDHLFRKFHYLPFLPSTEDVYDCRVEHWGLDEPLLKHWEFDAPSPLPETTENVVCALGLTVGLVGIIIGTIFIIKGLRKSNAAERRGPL
# protocol text: biochemical
measured endpoint: IC50

• CC(C)C[C@H](NC(=O)[C@H](CCCNC(=N)N)NC(=O)[C@H](Cc1ccc(O)cc1)NC(=O)[C@H](CC(C)C)NC(=O)[C@@H](N)Cc1ccc(O)cc1)C(=O)N[C@@H](Cc1ccccc1)C(=O)N[C@@H](CCCNC(=N)N)C(=O)N[C@@H](CCCCN)C(=O)N[C@@H](CO)C(=O)N[C@@H](CC(N)=O)C(=O)N[C@@H](CC(C)C)C(=O)N[C@@H](CCCCN)C(=O)N1CCC[C@H]1C(=O)N[C@@H](Cc1ccccc1)C(=O)N[C@@H](CCC(=O)O)C(=O)O [peptide 91] = 8.57 µM
• CC[C@H](C)[C@H](NC(=O)[C@H](CCCCN)NC(=O)[C@@H](N)Cc1ccccc1)C(=O)N[C@@H](Cc1ccc(O)cc1)C(=O)N[C@@H](CO)C(=O)N[C@@H](CCCCN)C(=O)N[C@@H](Cc1c[nH]cn1)C(=O)N[C@H](C(=O)N1CCC[C@H]1C(=O)N[C@H](C(=O)N[C@@H](CC(N)=O)C(=O)N[C@@H](CC(C)C)C(=O)N[C@H](C(=O)N[C@@H](CCCNC(=N)N)C(=O)N[C@@H](CC(=O)O)C(=O)O)C(C)C)[C@@H](C)CC)[C@@H](C)O [peptide 41] = 9.04 µM

====

# target or test system: HLA-DRB1*08:02 (Homo sapiens, UniProt P01903+P01911, A100R/A103L/A169T/F76Y/H45Y/I96F/K41T/L162R/M171V/P40S/Q125H/Q178H/Q39Y/Q99D/R218S/R42G/S66Y/V115G/W38E)
# protocol text: biochemical
Binary label based on IC50 with cut-off 200 nM: below gives Met, not below gives Not met.

- CC[C@H](C)[C@H](NC(=O)[C@H](CCCNC(=N)N)NC(=O)[C@H](CCCCN)NC(=O)[C@H](CCCNC(=N)N)NC(=O)[C@H](CC(N)=O)NC(=O)[C@H](Cc1c[nH]c2ccccc12)NC(=O)[C@H](C)NC(=O)[C@H](Cc1ccc(O)cc1)NC(=O)[C@@H](NC(=O)[C@H](CO)NC(=O)[C@H](C)NC(=O)[C@H](Cc1ccccc1)NC(=O)[C@@H](N)CCCNC(=N)N)C(C)C)C(=O)N[C@@H](CO)C(=O)N[C@@H](CC(N)=O)C(=O)O [compound 70]: Met
- CC[C@H](C)[C@H](NC(=O)[C@H](CCCCN)NC(=O)[C@@H](N)Cc1ccccc1)C(=O)N[C@@H](Cc1ccc(O)cc1)C(=O)N[C@@H](CO)C(=O)N[C@@H](CCCCN)C(=O)N[C@@H](Cc1c[nH]cn1)C(=O)N[C@H](C(=O)N1CCC[C@H]1C(=O)N[C@H](C(=O)N[C@@H](CC(N)=O)C(=O)N[C@@H](CC(C)C)C(=O)N[C@H](C(=O)N[C@@H](CCCNC(=N)N)C(=O)N[C@@H](CC(=O)O)C(=O)O)C(C)C)[C@@H](C)CC)[C@@H](C)O [peptide 41]: Met
- CC(C)C[C@H](NC(=O)[C@H](C)NC(=O)[C@H](CC(C)C)NC(=O)[C@H](CC(C)C)NC(=O)[C@@H](NC(=O)[C@H](CCC(N)=O)NC(=O)[C@H](Cc1ccccc1)NC(=O)[C@H](CCCNC(=N)N)NC(=O)[C@@H](N)[C@@H](C)O)[C@@H](C)O)C(=O)N[C@@H](Cc1c[nH]cn1)C(=O)N[C@@H](CCCNC(=N)N)C(=O)N[C@@H](CO)C(=O)N[C@@H](Cc1ccc(O)cc1)C(=O)N[C@@H](CC(C)C)C(=O)N[C@H](C(=O)O)[C@@H](C)O [peptide 48]: Met
- CC(C)[C@H](NC(=O)CNC(=O)[C@H](Cc1ccc(O)cc1)NC(=O)[C@H](CS)NC(=O)[C@H](CCCCN)NC(=O)[C@H](Cc1ccccc1)NC(=O)[C@@H](NC(=O)[C@H](CO)NC(=O)[C@H](Cc1ccccc1)NC(=O)[C@H](CO)NC(=O)[C@H](C)NC(=O)[C@@H](N)CO)[C@@H](C)O)C(=O)N[C@@H](CO)C(=O)N1CCC[C@H]1C(=O)N[C@H](C(=O)O)[C@@H](C)O [peptide 75]: Not met
- CC(C)[C@H](N)C(=O)N[C@@H](Cc1ccccc1)C(=O)N[C@@H](CC(N)=O)C(=O)N[C@@H](C)C(=O)N[C@H](C(=O)N[C@@H](CCCNC(=N)N)C(=O)N[C@@H](Cc1ccccc1)C(=O)N[C@@H](C)C(=O)N[C@@H](CO)C(=O)N[C@H](C(=O)N[C@@H](Cc1ccc(O)cc1)C(=O)N[C@@H](C)C(=O)N[C@@H](Cc1c[nH]c2ccccc12)C(=O)N[C@@H](CC(N)=O)C(=O)N[C@@H](CCCNC(=N)N)C(=O)O)C(C)C)[C@@H](C)O [peptide 69]: Not met
- CSCC[C@H](NC(=O)[C@H](CC(C)C)NC(=O)[C@H](Cc1ccccc1)NC(=O)[C@@H]1CCCN1C(=O)[C@H](CCC(N)=O)NC(=O)[C@H](CO)NC(=O)[C@@H](NC(=O)[C@H](Cc1ccc(O)cc1)NC(=O)[C@H](CCC(=O)O)NC(=O)[C@H](Cc1ccccc1)NC(=O)[C@@H](NC(=O)[C@@H](N)CS)[C@@H](C)O)C(C)C)C(=O)N[C@@H](CC(=O)O)C(=O)N[C@@H](CC(C)C)C(=O)N[C@@H](CCC(=O)O)C(=O)O [peptide 34]: Not met
- CC(C)C[C@H](NC(=O)[C@H](CCCNC(=N)N)NC(=O)[C@H](Cc1ccc(O)cc1)NC(=O)[C@H](CC(C)C)NC(=O)[C@@H](N)Cc1ccc(O)cc1)C(=O)N[C@@H](Cc1ccccc1)C(=O)N[C@@H](CCCNC(=N)N)C(=O)N[C@@H](CCCCN)C(=O)N[C@@H](CO)C(=O)N[C@@H](CC(N)=O)C(=O)N[C@@H](CC(C)C)C(=O)N[C@@H](CCCCN)C(=O)N1CCC[C@H]1C(=O)N[C@@H](Cc1ccccc1)C(=O)N[C@@H](CCC(=O)O)C(=O)O [peptide 91]: Met
- CC[C@H](C)[C@H](N)C(=O)N1CCC[C@H]1C(=O)N[C@@H](Cc1ccccc1)C(=O)N[C@@H](C)C(=O)N[C@@H](CCSC)C(=O)N[C@@H](CCC(N)=O)C(=O)N[C@@H](CCSC)C(=O)N[C@@H](C)C(=O)N[C@@H](Cc1ccc(O)cc1)C(=O)N[C@@H](CCCNC(=N)N)C(=O)N[C@@H](Cc1ccccc1)C(=O)N[C@@H](CC(N)=O)C(=O)NCC(=O)N[C@H](C(=O)NCC(=O)O)[C@@H](C)CC [peptide 180]: Not met
- CC[C@H](C)[C@H](NC(=O)CN)C(=O)N[C@@H](Cc1ccc(O)cc1)C(=O)N[C@@H](CCC(N)=O)C(=O)N[C@H](C(=O)N[C@@H](CO)C(=O)N[C@@H](CC(N)=O)C(=O)N[C@@H](Cc1ccccc1)C(=O)N[C@@H](CCCNC(=N)N)C(=O)N[C@H](C(=O)N[C@@H](CCC(N)=O)C(=O)N1CCC[C@H]1C(=O)N[C@H](C(=O)N[C@@H](CCC(=O)O)C(=O)N[C@@H](CO)C(=O)O)[C@@H](C)O)C(C)C)[C@@H](C)O [compound 63]: Not met

====

# target or test system: HLA-DRB1*04:05 (Homo sapiens, UniProt P01903+P01911, A100R/A169T/D86S/F76Y/I96L/K127E/L162R/M171V/N62H/P40V/Q125Y/R42H/S133A/S149N/S66Y/V115G/V209L/W38E)
# protocol text: biochemical
Listing of entries alongside the reported IC50.
measured endpoint: IC50 (nM)

- CC(C)C[C@H](NC(=O)[C@H](C)NC(=O)[C@H](CC(C)C)NC(=O)[C@H](CC(C)C)NC(=O)[C@@H](NC(=O)[C@H](CCC(N)=O)NC(=O)[C@H](Cc1ccccc1)NC(=O)[C@H](CCCNC(=N)N)NC(=O)[C@@H](N)[C@@H](C)O)[C@@H](C)O)C(=O)N[C@@H](Cc1c[nH]cn1)C(=O)N[C@@H](CCCNC(=N)N)C(=O)N[C@@H](CO)C(=O)N[C@@H](Cc1ccc(O)cc1)C(=O)N[C@@H](CC(C)C)C(=O)N[C@H](C(=O)O)[C@@H](C)O [peptide 48]: 794
- CC(C)C[C@H](NC(=O)[C@H](CCCNC(=N)N)NC(=O)[C@H](Cc1ccc(O)cc1)NC(=O)[C@H](CC(C)C)NC(=O)[C@@H](N)Cc1ccc(O)cc1)C(=O)N[C@@H](Cc1ccccc1)C(=O)N[C@@H](CCCNC(=N)N)C(=O)N[C@@H](CCCCN)C(=O)N[C@@H](CO)C(=O)N[C@@H](CC(N)=O)C(=O)N[C@@H](CC(C)C)C(=O)N[C@@H](CCCCN)C(=O)N1CCC[C@H]1C(=O)N[C@@H](Cc1ccccc1)C(=O)N[C@@H](CCC(=O)O)C(=O)O [peptide 91]: 543
- CC[C@H](C)[C@H](NC(=O)[C@H](CCCNC(=N)N)NC(=O)[C@H](CCCCN)NC(=O)[C@H](CCCNC(=N)N)NC(=O)[C@H](CC(N)=O)NC(=O)[C@H](Cc1c[nH]c2ccccc12)NC(=O)[C@H](C)NC(=O)[C@H](Cc1ccc(O)cc1)NC(=O)[C@@H](NC(=O)[C@H](CO)NC(=O)[C@H](C)NC(=O)[C@H](Cc1ccccc1)NC(=O)[C@@H](N)CCCNC(=N)N)C(C)C)C(=O)N[C@@H](CO)C(=O)N[C@@H](CC(N)=O)C(=O)O [compound 70]: 6270
- CC[C@H](C)[C@H](NC(=O)[C@H](CC(=O)O)NC(=O)CNC(=O)[C@H](CC(C)C)NC(=O)[C@H](CS)NC(=O)[C@H](CC(=O)O)NC(=O)CNC(=O)[C@H](Cc1ccc(O)cc1)NC(=O)[C@H](CCC(N)=O)NC(=O)[C@H](CCCCN)NC(=O)[C@@H](NC(=O)[C@H](Cc1ccccc1)NC(=O)CNC(=O)[C@H](C)N)[C@@H](C)CC)C(=O)N[C@@H](C)C(=O)O [peptide 167]: 950
- CC(C)[C@H](NC(=O)CNC(=O)[C@H](Cc1ccc(O)cc1)NC(=O)[C@H](CS)NC(=O)[C@H](CCCCN)NC(=O)[C@H](Cc1ccccc1)NC(=O)[C@@H](NC(=O)[C@H](CO)NC(=O)[C@H](Cc1ccccc1)NC(=O)[C@H](CO)NC(=O)[C@H](C)NC(=O)[C@@H](N)CO)[C@@H](C)O)C(=O)N[C@@H](CO)C(=O)N1CCC[C@H]1C(=O)N[C@H](C(=O)O)[C@@H](C)O [peptide 75]: 559
- CC[C@H](C)[C@H](NC(=O)[C@H](Cc1ccccc1)NC(=O)[C@@H](N)CO)C(=O)N[C@@H](CCC(=O)O)C(=O)N[C@@H](CC(=O)O)C(=O)N[C@@H](CC(C)C)C(=O)N[C@@H](CC(C)C)C(=O)N[C@@H](Cc1ccccc1)C(=O)N[C@@H](CC(N)=O)C(=O)N[C@@H](CCCCN)C(=O)N[C@H](C(=O)N[C@H](C(=O)N[C@@H](CC(C)C)C(=O)N[C@@H](C)C(=O)N[C@@H](CC(=O)O)C(=O)O)[C@@H](C)O)C(C)C [peptide 164]: 2170
